# EXPERIMENTAL DETAILS: NOMO-1 AML cell viability reduction, primary screen, STK33 inhibitor project, CellTiter-Glo luminescence (AID 2330)
# EXPERIMENTAL SETUP: NOMO-1 AML viability, 72 h, stronger effect = higher value, concentration not given here
Out of some 37,000 compounds screened, about 2,800 (7.6%) were called active. About 1% were inconclusive and are not listed. The sample as a whole holds a higher share of actives than the screen did.
Rule: measured inhibition below 20% gets fulfilled; anything equal to or greater than 20% gets not fulfilled.

Inquiry: Problem: For the molecule Oc1ccc(CN2CCCC2)c2cccnc12 , is inhibition under 20%?
Reply text: not fulfilled

Inquiry: Problem: For the molecule C[C@H]1CN([C@@H](C)CO)C(=O)c2cccc(NC(=O)NC3CCCCC3)c2O[C@H]1CN(C)CC1CCCCC1 , is inhibition under 20%?
Reply text: fulfilled

Inquiry: Problem: For the molecule O=C(CCn1cnc2ccccc2c1=O)Nc1cccc(C(F)(F)F)c1 , is inhibition under 20%?
Reply text: fulfilled

###

# EXPERIMENTAL DETAILS: NOMO-1 AML cell viability reduction, primary screen, STK33 inhibitor project, CellTiter-Glo luminescence (AID 2330)
# EXPERIMENTAL SETUP: NOMO-1 AML viability, 72 h, concentration not given here
About 2,800 (7.6%) of roughly 37,000 compounds were called active. Not shown: some 1% with an inconclusive outcome. Rule as the data show it: active = inhibition above about 80%; inconclusive = no clear call, values can overlap the other calls; inactive = below that. The entries come from a sample that favours actives as a whole.
Pick one and only one: active, inactive

- COMPOUND: "CCOc1ccc(NC(=O)C2CC(=O)n3c(nc4ccccc43)N2)cc1 (centres undefined)"
  GROUP LABEL: "inactive"
- COMPOUND: "C[C@@H]1CN([C@@H](C)CO)C(=O)c2cc(NS(=O)(=O)c3cn(C)cn3)ccc2O[C@@H]1CN(C)Cc1ccc(C(=O)Nc2ccccc2N)cc1"
  GROUP LABEL: "inactive"
- COMPOUND: "COc1ccc(S(=O)(=O)Nc2cccc3c2O[C@@H](CN(C)Cc2ccc(-c4ccccc4)cc2)[C@H](C)CN([C@H](C)CO)C3=O)cc1"
  GROUP LABEL: "inactive"
- COMPOUND: "CC(C)NC(=O)Nc1cccc2c1O[C@H](CN(C)S(=O)(=O)c1ccccc1)[C@@H](C)CN([C@@H](C)CO)C2=O"
  GROUP LABEL: "inactive"

Inquiry: Tell me the recorded outcome of this test for Cc1ccc(S(=O)(=O)Nc2ccc3c(c2)C(=O)N([C@@H](C)CO)C[C@@H](C)[C@@H](CN(C)Cc2ccc(C(=O)Nc4ccccc4N)cc2)O3)cc1 .
Reply text: active

Inquiry: Tell me the recorded outcome of this test for CN1C(=O)C(O)(CC(=O)c2ccco2)c2cc([N+](=O)[O-])ccc21 (centres undefined) .
Reply text: inactive

Inquiry: Tell me the recorded outcome of this test for C[C@H](CO)N1C[C@H](C)[C@@H](CN(C)S(C)(=O)=O)Oc2c(NC(=O)c3ccc(-c4nccs4)cc3)cccc2C1=O .
Reply text: inactive

Inquiry: Tell me the recorded outcome of this test for C[C@H](CO)N1C[C@H](C)[C@H](CN(C)S(C)(=O)=O)Oc2c(NC(=O)c3ccc(-c4nccs4)cc3)cccc2C1=O .
Reply text: inactive

Inquiry: Tell me the recorded outcome of this test for O=C(CC(C(=O)O)N1CCNCC1)Nc1cccc(Cl)c1 (centres undefined) .
Reply text: inactive

Inquiry: Tell me the recorded outcome of this test for C[C@H](CO)N1C[C@H](C)[C@@H](CN(C)C(=O)Nc2ccccc2)Oc2ccc(N(C)C)cc2C1=O .
Reply text: inactive

Inquiry: Tell me the recorded outcome of this test for C[C@H]1CN([C@@H](C)CO)C(=O)c2cc(NC(=O)c3ccncc3)ccc2O[C@H]1CN(C)Cc1ccc(C(=O)Nc2ccccc2N)cc1 .
Reply text: active

Inquiry: Tell me the recorded outcome of this test for CCC/C=C/C=C/C1CC(O)C(O)C1C(=O)O (centres undefined) .
Reply text: inactive

###

# EXPERIMENTAL DETAILS: NOMO-1 AML cell viability reduction, primary screen, STK33 inhibitor project, CellTiter-Glo luminescence (AID 2330)
# EXPERIMENTAL SETUP: NOMO-1 AML viability, 72 h, stronger effect = higher value, concentration not given here
About 2,800 (7.6%) of roughly 37,000 compounds were called active. Inconclusive results (about 1%) are left out. This is one part of a sample in which actives are shown more often than they occur.
QUANTITY: inhibition

- ENTRY SMILES: "C[C@@H]1CN([C@H](C)CO)C(=O)c2cc(NC(=O)Nc3ccccc3)ccc2O[C@H]1CN(C)Cc1ccc(Cl)c(Cl)c1"
  inhibition: "-8.23% (inactive)"
- ENTRY SMILES: "C[C@H]1CN([C@@H](C)CO)C(=O)Cc2cc(NC(=O)C3CCCCC3)ccc2O[C@H]1CN(C)C(=O)Nc1ccc(C(F)(F)F)cc1"
  inhibition: "11.2% (inactive)"

Inquiry: Indicate the recorded inhibition value for this compound: COc1ccc(NC(=O)CN2CCN(S(=O)(=O)c3ccc4ccccc4c3)CC2)cc1
Reply text: 8.78% (inactive)

Inquiry: Indicate the recorded inhibition value for this compound: C[C@@H]1CN([C@@H](C)CO)C(=O)Cc2cc(NC(=O)C3CCCCC3)ccc2O[C@@H]1CN(C)C(=O)Nc1ccc(C(F)(F)F)cc1
Reply text: 37.5% (inactive)

Inquiry: Indicate the recorded inhibition value for this compound: NC(=O)c1c(NC(=O)c2cnn3c(C(F)F)cc(-c4ccccc4)nc23)sc2c1CCCC2
Reply text: 112% (active)

Inquiry: Indicate the recorded inhibition value for this compound: C[C@H]1CN([C@@H](C)CO)C(=O)Cc2cc(NC(=O)Nc3ccccc3)ccc2O[C@H]1CN(C)Cc1ccncc1
Reply text: 19.2% (inactive)

Inquiry: Indicate the recorded inhibition value for this compound: COc1ccc(NC(=O)Nc2ccc3c(c2)C(=O)N([C@@H](C)CO)C[C@@H](C)[C@H](CN(C)Cc2ccc(Cl)c(Cl)c2)O3)cc1
Reply text: 39.3% (inactive)

Inquiry: Indicate the recorded inhibition value for this compound: C[C@H]1CN([C@@H](C)CO)C(=O)c2cc(NC(=O)Nc3ccc4c(c3)OCO4)ccc2O[C@@H]1CN(C)Cc1ccc(Oc2ccccc2)cc1
Reply text: 102% (active)

Inquiry: Indicate the recorded inhibition value for this compound: COc1ccc(CN(C)C[C@@H]2Oc3ccc(NC(=O)c4ccncc4)cc3CC(=O)N([C@H](C)CO)C[C@H]2C)cc1
Reply text: 13.5% (inactive)

Inquiry: Indicate the recorded inhibition value for this compound: C[C@H](CO)N1C[C@H](C)[C@H](CN(C)Cc2ccc(-c3ccccc3)cc2)Oc2ccc(NC(=O)Nc3ccc(F)cc3)cc2CC1=O
Reply text: 110% (active)

Inquiry: Indicate the recorded inhibition value for this compound: CC(C)NC(=O)N(C)C[C@@H]1Oc2ccc(NC(=O)C3CCCCC3)cc2CC(=O)N([C@H](C)CO)C[C@@H]1C
Reply text: 27.6% (inactive)

Inquiry: Indicate the recorded inhibition value for this compound: C[C@@H]1CN([C@H](C)CO)C(=O)Cc2cc(N(C)C)ccc2O[C@@H]1CN(C)Cc1ccccc1
Reply text: 124% (active)

Inquiry: Indicate the recorded inhibition value for this compound: C[C@@H]1CN([C@H](C)CO)C(=O)c2cc(NC(=O)Nc3ccc4c(c3)OCO4)ccc2O[C@@H]1CN(C)Cc1ccc(C(F)(F)F)cc1
Reply text: 50.9% (inactive)

Inquiry: Indicate the recorded inhibition value for this compound: CCn1c(=O)cc(O)c2ccccc21
Reply text: 27.9% (inactive)

Inquiry: Indicate the recorded inhibition value for this compound: Cc1noc(C)c1NC(=O)Nc1ccc2c(c1)C(=O)N([C@@H](C)CO)C[C@H](C)[C@@H](CN(C)C(=O)Nc1ccccc1)O2
Reply text: -19% (inactive)

###

# EXPERIMENTAL DETAILS: NOMO-1 AML cell viability reduction, primary screen, STK33 inhibitor project, CellTiter-Glo luminescence (AID 2330)
# EXPERIMENTAL SETUP: NOMO-1 AML viability, 72 h, stronger effect = higher value, concentration not given here
Hit rate of the full screen: of about 37,000 compounds, about 2,800 (7.6%) were called active. Not shown: some 1% with an inconclusive outcome. The sample holds actives, similar compounds and a random draw of the others, so the mix is not that of the screen.
QUANTITY: inhibition (%)
Your answer should be a plain number; it is taken to be in %.

Sample records with inhibition:
- ENTRY SMILES: "O=C(Nc1ccccc1)C(=S)Nc1ccccc1"
  QUANTITY: "inhibition"
  TEST RESULT: 38.4
- ENTRY SMILES: "COC(=O)c1ccc(NC(=O)CN(c2ccc(C)c(Cl)c2)S(C)(=O)=O)cc1"
  QUANTITY: "inhibition"
  TEST RESULT: -3.13
- ENTRY SMILES: "Cc1ccc(S(=O)(=O)N(C)C[C@@H]2Oc3ccc(NC(=O)Cc4ccccc4)cc3CC(=O)N([C@H](C)CO)C[C@H]2C)cc1"
  QUANTITY: "inhibition"
  TEST RESULT: 53.4

Inquiry: Indicate the recorded inhibition value for this molecule: COC(=O)C1=C[C@H](O[C@@H]2O[C@H](CO)[C@@H](O)[C@H](O)[C@H]2O)C[C@H]2[C@]3(C)C[C@@H](c4ccoc4)OC(=O)[C@H]3CC[C@@]12C
Reply text: 22.8

Inquiry: Indicate the recorded inhibition value for this molecule: O=[N+]([O-])c1ccc(NCCNCc2cccnc2)cc1
Reply text: -20

Inquiry: Indicate the recorded inhibition value for this molecule: CCOC(=O)c1nnn2c3ccccc3c(=O)n(C)c12
Reply text: -3.54
